# %Inh per record follows
- System: PIP5K1C
- cond: concentration: 1 μM, replicates: in singlicate; n = 1;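 note: KINOMEscan kinase panel screen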
# number only, unit % dropped from output

Exercise: Notebook: pull reported %Inh for PIP5K1C, entry COc1ccc(-c2coc3ccc(-c4nnc(SCc5ccc(OC)c(C(F)(F)F)c5)o4)cc23)cc1
Key: 0

Exercise: Continue with O=C(Nc1cccc(-c2nn3ccccc3c2-c2ccnc(Nc3cccc(F)c3)n2)c1)c1c(F)ccc(F)c1Cl [GSK357952]
Key: 7

Exercise: Check Cl.Cl.NCC(C(=O)Nc1cc(Br)c(-c2ccnc3[nH]ccc23)s1)c1ccccc1 (centres unmarked) [GSK1269851] too.
Key: 38

Exercise: Next up: COc1cccc(NC(=O)NC2CCN(c3ccnc(Nc4cc(OC)c(OC)c(OC)c4)n3)C2)c1 (centres unmarked) [GSK1379763]
Key: 57

----------
- System: MUSK
- cond: concentration: 1 μM, replicates: in singlicate; n = 1
measured parameter: %Inh (%)
Unit % implied. Number only.

Nc1n[nH]c2cnc(-c3ccccc3)cc12 = 99.9
COc1cc(Nc2nccc(-c3c(-c4cccc(NC(=O)c5c(F)cccc5F)c4)nn4ncccc34)n2)cc(OC)c1OC = 25
CCCCc1nn2ncccc2c1-c1ccnc(Nc2ccc(N3CCN(C)CC3)cc2)n1 = 98.2
Nc1ncc(-c2cccnc2)c2scc(-c3ccc4c(c3)CCN4C(=O)Cc3ccccc3)c12 = 39

Exercise: Would you kindly share the measured %Inh for COc1cccc(NC(=O)NC2CCN(c3ccnc(Nc4cc(OC)c(OC)c(OC)c4)n3)C2)c1 (centres unmarked) ?
Key: 5

Exercise: Entry to check: CC(C)(C)c1ccc2nccc(Nc3cccc(O)c3)c2c1
Key: 0

Exercise: Now consider CCS(=O)(=O)c1ccc(OC)c(Nc2nccc(-c3c(-c4cccc(NC(=O)c5c(F)cccc5F)c4)nn4ncccc34)n2)c1 .
Key: 11

Exercise: What do we get for COc1ccc(Nc2nccc(NCCNC(=O)c3cc4ccccc4s3)n2)cc1 ?
Key: 8

----------
- Test system: CSNK1G2
- cond: concentration: 1 μM, replicates: in singlicate; n = 1
Reported %Inh values for a set of compounds
Return type: number; implicit unit %.

// worked examples, %Inh included
COc1cccc(-c2ccc3c(NC(=O)C4CC4)n[nH]c3n2)c1 [SB-710903] = 0
Cn1cc(-c2ccc3c(c2)CCN3C(=O)Cc2cccc(F)c2)c2c(N)ncnc21 [GSK2603358] = 0
c1ccc(-c2n[nH]cc2Nc2ccnc3ccccc23)nc1 [GW694077] = 1
COC(=O)Nc1nc2ccc(Oc3ccc(NC(=O)Nc4cc(C(F)(F)F)ccc4F)cc3)cc2n1C.Cl [GW692089] = 0
Cn1cc(-c2ccc3c(c2)CCN3C(=O)Cc2cccc(Cl)c2)c2c(N)ncnc21 [GSK2606590] = 0
Cl.NC(=O)c1cccc(Nc2nccc(Nc3ccc(Oc4c(Cl)cccc4Cl)c(Cl)c3)n2)c1 [GW659009] = 2

Exercise: Give the reported %Inh for COc1cc2c(cc1OCCN1CCNCC1)ncc1c3ccc(C#N)cc3[nH]c21 (system: CSNK1G2).
Key: 0

Exercise: Queued: COc1cc(Nc2nccc(-c3c(-c4cccc(NC(=O)c5c(F)cccc5F)c4)nn4ncccc34)n2)cc(OC)c1OC [GSK327238]
Key: 0
